Here, each record is paired with measured abundance fitness data.
B1: Homeobox protein cut-like 2, residues 895 to 963; numbered along this chain, O14529 (parent)
chain: EVDTLELTRQVKEKLAKNGICQRIFGEKVLGLSQGSVSDMLSRPKPWSKLTQKGREPFIRMQLWLSDQL

Variants of: B1
ASSAY DETAILS: abundance fitness (aPCA) (normalised: wild type 0, dead -1); higher = more abundant; growth selection in yeast, the domain comes from the species named
MEASUREMENT PARAMETERS: Homo sapiens
Answer with the value's number alone.

EVDTLENTRQVKEKLAKNGICQRIFGEKVLGLSQGSVSDMLSRPKPWSKLTQKGREPFIRMQLWLSDQL ... 0.034
EVDTLELTRQVKEKLAKNGICQRIFGEKVLGLYQGSVSDMLSRPKPWSKLTQKGREPFIRMQLWLSDQL ... -0.12

Attention now shifts to the item below.
Challenge: Would you mind telling me what abundance fitness value was observed for EVDTLEFTRQVKEKLAKNGICQRIFGEKVLGLSQGSVSDMLSRPKPWSKLTQKGREPFIRMQLWLSDQL ?
Response given: -0.141

Numbers sourced from the Human Domainome abundance scans (Beltran et al. 2025).
